assay: yeast display, Sf9 membrane polyspecificity reagent, FACS + sequencing; frameworks hold sequencing errors

biopolymer.sequence	polyreactivity (PSR sort gate)
QGQLVESGGGLVQAGGSLRLSSAASGSIFFQNVMGWYRQAPGKERELVAAFSSSGDSTYYADSVKGRFTISRDNAKNTVYLQMISLKPEDTAVYYCAAEPEYVSGPYDYWGQGTQVTVSS	low polyreactivity
QVQLVESGGGLVQAGGSLRLSCAASGYIFAGNAMGWYRQAPGKERELVAAINSDGRTYYADSVRGRFTISRDNAKNSVYLQMNSLKPEDTAVYYCAVVRFYLGDYLVEFDYWGQGTQVTVSS	low polyreactivity
QVQLVESGGGLVQAGGSLRLSCAASGSTFGHYAMGWSRQAPGKERELVARITSDDSTSYADSVKGRFTISRDNAKNTVYLQMNSLKPEDTAVDYCAARYYSYSWHPARYQGRYSWGQGTQVTVSS	high polyreactivity
QVQLVESGGGLVQAGGSLRLSCAASGRTFRTYTMGWYRQAPGKERELVATISWSGGSTNYADSVKGRFTISRDNAKNTVYLQMNSLKPEDTAVYYCNAYVSPRYRGSRYYYWGQGTQVTVSS	high polyreactivity
QVQLVESGGGLVQAGGSLRLSCAASGSIFLSNMGWYRQAPGKERELVAAISRNGGSTYYADSVKGRFTISRDNAKYSVYLQMNSLKPEDTAVYYCAVQRYWGQGTQVTVSS	high polyreactivity

====

experiment: yeast display, Sf9 membrane polyspecificity reagent, FACS + sequencing; frameworks hold sequencing errors

biopolymer.sequence	polyreactivity (PSR sort gate)
QVQLVESGGPIVQAGGSLRISCAASGRTYAYKTMGWSRQAPGKERELVAGINSSGGSTYYADSVKGRFTISRDNAKNTVYLQMNSLKPEDTAVYDCAADNSPRPYDSWGQGTQVTVSS	high polyreactivity
QVQLVESGGGLVQAGGSLRLSCAATGRTFGFNDMGWYRKATGKEREFVAAINSGGNTYYADSVKGRFTISRDNAKNTVYLQMNSLKPEDTAVYECAVKRASRYYVRKEYYYWGQGTQVTVSS	high polyreactivity
QVQLVESGGGLVQAGGSLRLSCAASGSTFVYYAMGWYRQAPGKERELVADISWSGGDTYYADSVKGRFTISRDNAKNTVYLQMNSLKPVDTAVYYCAAEWSTPSYVGFADGFEYWGQGTQVTVSS	low polyreactivity
QVQLVESGGGLVQAGGSLRLSCAASGSIFYVYAMGWYRQAPGNERELVAVIRRGGSTKYADSVKGRFTISRDNAKNTVYLQMNSLKPEDTAVYYCNVVGYAYGWQYDYWGQGTQVTVSS	high polyreactivity
QVQLVESGGGLVQAGGSLRLSCAASGSTIPPNAMGWYRQAPGKERELVAVISNGGSNTRYADSVKGRFTISRDNAKNTVYLQMNRLKPEDTAVYYCAADYEYSGYGYWGQGTQVTVSS	high polyreactivity
QVQLVESGGGLVQAGGSLRLSWAASGFGWYAMGWYRQAPGKEREFVAAISRGGGSTYYADSVKGRFTISRDNAKNTVYLQMNSLKPEDTAVYYCAAVYYRRISQGDTQTYYQYNYWGQGTQVTVSS	high polyreactivity
QVQLVESGGGIVQAGGSLRLSCAASGFTISRNTMGWYRQAPGKEREFVARISAYGGSTYYADSVKGRFTISRDNAKNSVYLQMNSLKPVDTAVYYCAAVYRRYGGSRYDYWGQGTQVTVSS	high polyreactivity
QVQLVESGGGLVQAGGSLRLSCAAYGSTFKRNAMGCYRQAPGKEREFVAAITWSGGSTYYADSVKGRFTISRDNAKNTVYLQMNSLKPEDTAVYYCNADRFSSRHSYDYWGQGTQVTVSS	low polyreactivity
QVQLVESGGGLVQAGGSLRLSCAASGNTFSWYAMGWYRQAPGKERELVAVITSGGSTNYADSVKGRFTISRDNAKNTVYLQMNSLKPEDTAVYYCNKGLSRSYWWVDYWGQGTQVTVSS	low polyreactivity
QVQLVESGGGLVQAGGSLRLSCAASGRIFVPNAMGWYRQAPGKERELVARISRSDGSTYYADSVKGRFTISRDNAKNTVYFPMNSLKPEDTAVYYCAASTTPRWWSFKYYYWGQGTQVTVSS	high polyreactivity
QVQLVESGGGLVQAGGSLRLSCAASGFIFYSYALGWYRQAPGKEREFVASISGRTGSTYYADSVKGRFTISRDNAKNTVYLQMNSLKPEDTAVYYCNARIVHSFRYDYWGQGTQVTVSS	low polyreactivity
QVQLLESGGGLVQAGGTLRLSCAASGRISWYNAMGWYRQAPGKERELVAAIRGGGSTHYADSVKGRFTISRDNAKNTVYLQMNSLKPEDTAVYYCAAYLYYPFYWWRDYWGQGTQVTVSS	high polyreactivity
QVQLVESGGGLVQAGGSLRLSCAASGFIFLGNAKGWYRQATGKERELVAAISSGGSTYADSVKGRFTISRDNAKNTVYLQMNSLKPEDTAVYYCAVDRAFRAQNYHEYDYWGQGTQVTVSS	low polyreactivity
QVQLVESGGGLVQAGGSLRLICAASGGIFVYYAMGWYRQAPGKERELVAAISSGGTTNYADSVKGRFTISRDNAKNTVYLQMNSLKPEDTAVYYCAIYVSWPLYYYWGQCTQVTVSS	low polyreactivity
QVQLVESGGGLVQAGGSLRLSCAASGIIFYLYTMGWYRQAPGKERELVAAISKSGARTYYADSVKGRFTISRDNAKNTVYLQMNSLKPEDTAVYYCAADVSVSGYYYWGQGTQVTVSS	high polyreactivity
QVQLVESGGGLVQARGSLRLSCAASGRIFNYNAMGWYRQAPGKERELVAAITSSGGSTYYADSVKGRFTISRDNAKNTVYLQMNSLKPEDTAVYYCNALITYSSDYWGQGTQVTVSS	low polyreactivity
QVQLVESGGGLVQAGGSLRLSCAASGRIFVLNAMGWYRQAPGKERELVAAISGSGSRTYYADSVKGRFTISRDNAKNTVYLQMNSLKPEDTAVYYCNTVSRRSEHTYDYWGQGTQVTVSS	high polyreactivity
QVQLVESGGGLVQAGGSLRLSCAASGSIFYYYAMGWYRQAPGKERELVAAISKSGGSTYADSVKGRFTISRDNAKNTVYLQMNSLKPEDTAVYYCAATYYYSWYAFNYWGQGTQVTVSS	low polyreactivity
QVQLVESGGGLVQAGGSLRLSCAASGSPFNYYAMGSYRQAPGKERELVAGINRGGSTNYADSVKGRFTISRDNAKNTVYLQMNSLKPEDTAVYYCAVRAYRWRSTLGLYYWGQGTQVTVSS	high polyreactivity
QVQLVESGGGLVQAGGSLRLSCAASGFIFSYYTMGWYRQEPGTERELVADISWSGGSSYYADSVKGRFTISRDNAKNTVYLQMNSLKPEDTAVYYCNAEGWTAFLDQYDYWGQGTQVTVSS	high polyreactivity
QVQLVESGGGVVQAGGSLRLSCAASGGTFGKYAMGWYRQAPGNEREFVAAISKSGGSTFYADSVKGRFTISRDNAKNTVYLQMNSLKPEDTAVYYCAVRWYYRGRSLYDYWGQGTQVTVSS	high polyreactivity

====

assay: yeast display, Sf9 membrane polyspecificity reagent, FACS + sequencing; frameworks hold sequencing errors
measurement.name: polyreactivity (PSR sort gate)

In [3]: df
Out[3]:
                        biopolymer_sequence                measurement_name      observed_result
0  QVQLVESGGGLVQAGGSLRLSCAASGIIFRRYAMGWYRQAPGKERELVAAIRTSGGNTYYADSVKRRFTISRDNAKNTVYLQMNSLKPEDTAVYYCAARKYHYRYGYWGQGTQVTVSS  polyreactivity (PSR sort gate)  high polyreactivity
1  QDQIVESGGGYDQAGGSLRLTCAASGRIFRGNDMGSYRQAPGKERELVASISGTGGRTYYADSVKGRFTISRDNAKNTVYLQMNSLKPEDPAVYYCAVRTSLWGYYYWGHGTQVTVSS  polyreactivity (PSR sort gate)  high polyreactivity

====

assay: yeast display, Sf9 membrane polyspecificity reagent, FACS + sequencing; frameworks hold sequencing errors

biopolymer.sequence	polyreactivity (PSR sort gate)
QVQLVESGGGLVLAGGSLRLSCAASGSMFGGYAMGWYLQSPGKERELVAAISYRGASTYYADSVKGRFTISRDNAKNTVYLQMNSVKPEDTAVYYCAVAARTRDRVLYGYDYWGQGTQVTVSS	low polyreactivity
QVQLVESWGGLVQAGGSLRLSCAASGIIFRTYAMGWYRQAPWKERELVAAINSDGSTYYADSVKGRFTISRDNAKNTVYLQMNSLKPEDTAVYYCAATYGRSRKDGYWGQGTQVTVSS	high polyreactivity
QVQLVESGGGLVQAGGSLRLSCAASGSTFGYNGMGWYRQGPGKERELVAAISGGARTYADSVKGRFTISRDNAKNTVYLQMNSLKPEDTAVYYCAADSPVSVTADDGYWGQGTQLTVSS	low polyreactivity
QVQLVESGGGLVQAGGSLRLSCAASGFLFPKNAMGWSRQAPGTEMEWVAAISSGGARTYYADSVKGRFTISRDNAQNSVYEQMNSLKPEDTAVYYCAARTSPFWRGGGLDYWGQGTQVTVSS	high polyreactivity
QVQLVESGGGLVQAGGSLRLSCAASGFTIQFYTMGWYRQAPGKERELVAAISYNGDSTYYADSVKGRFTISRDNAKNTVYLQMNSLKPEDTAVYYCNTDLGTIYYYGYDYWGQGTQVTVSS	high polyreactivity
